target: hERG (KCNH2) (Homo sapiens, UniProt Q12809); assay: in vitro
Sequence (Q12809 whole entry): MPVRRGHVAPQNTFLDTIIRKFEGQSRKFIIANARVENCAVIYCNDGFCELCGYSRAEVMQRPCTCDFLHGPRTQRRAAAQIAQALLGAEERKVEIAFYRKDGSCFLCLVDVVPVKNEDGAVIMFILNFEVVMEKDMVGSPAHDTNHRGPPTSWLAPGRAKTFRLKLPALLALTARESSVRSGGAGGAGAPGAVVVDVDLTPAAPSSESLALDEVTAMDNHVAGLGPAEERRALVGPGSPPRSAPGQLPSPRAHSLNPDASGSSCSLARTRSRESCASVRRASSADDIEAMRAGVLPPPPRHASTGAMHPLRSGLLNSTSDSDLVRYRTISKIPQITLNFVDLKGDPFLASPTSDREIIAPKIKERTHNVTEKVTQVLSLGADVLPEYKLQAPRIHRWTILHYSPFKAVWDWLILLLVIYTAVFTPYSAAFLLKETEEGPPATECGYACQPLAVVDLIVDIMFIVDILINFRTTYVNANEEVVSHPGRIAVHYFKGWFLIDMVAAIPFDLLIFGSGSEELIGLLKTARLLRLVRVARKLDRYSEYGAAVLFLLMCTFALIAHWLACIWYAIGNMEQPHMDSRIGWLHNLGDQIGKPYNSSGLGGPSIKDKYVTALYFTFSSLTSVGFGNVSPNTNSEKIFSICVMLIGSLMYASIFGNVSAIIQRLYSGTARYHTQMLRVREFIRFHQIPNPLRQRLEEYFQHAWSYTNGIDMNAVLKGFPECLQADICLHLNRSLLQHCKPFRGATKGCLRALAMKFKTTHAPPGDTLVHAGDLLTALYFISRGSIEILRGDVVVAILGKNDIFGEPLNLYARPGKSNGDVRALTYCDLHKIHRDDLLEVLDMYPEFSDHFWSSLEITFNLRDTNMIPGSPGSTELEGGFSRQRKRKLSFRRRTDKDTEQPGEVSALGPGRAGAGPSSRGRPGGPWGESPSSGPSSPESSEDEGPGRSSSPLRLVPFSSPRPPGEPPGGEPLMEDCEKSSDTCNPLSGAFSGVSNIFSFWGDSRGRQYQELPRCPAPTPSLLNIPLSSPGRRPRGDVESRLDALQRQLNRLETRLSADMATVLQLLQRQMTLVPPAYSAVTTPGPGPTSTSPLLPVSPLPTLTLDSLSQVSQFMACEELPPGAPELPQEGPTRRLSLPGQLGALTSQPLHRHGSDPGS
Description: Inhibition of human ERG at 10 uM by manual patch-clamp assay relative to control
Task for the reader: assign each of the following compounds its reported inhibition at 10 µM.
Param answer (str): number followed by unit.

Answered examples (2):
>>> experimental_result("CC(=O)N[C@@H]1C[C@H](N(C)C(C)C)CC[C@@H]1N1CC[C@H](Nc2ncnc3ccc(C(F)(F)F)cc23)C1=O")
"33%"
>>> experimental_result("CC(C)N(C)[C@@H]1CC[C@H](N2CC[C@H](NC(=O)c3cccc(C(F)(F)F)c3)C2=O)[C@H](N(C)S(C)(=O)=O)C1")
"7%"

Could you now consider this next compound?
// fetch inhibition at 10 µM given entry `CC(C)N(C)[C@@H]1CC[C@H](N2CC[C@H](Nc3ncnc4ccc(C(F)(F)F)cc34)C2=O)[C@H](NS(C)(=O)=O)C1`
74%

---

Task for the reader: assign each of the following compounds its reported bioavailability.
assay: Oral bioavailability in mouse; assay type: ADME, organism-based; conditions: in vivo
Numbers only, in %.

Answered examples (2):
>>> experimental_result("CC(=O)N[C@@H]1C[C@H](N(C)C(C)C)CC[C@@H]1N1CC[C@H](Nc2ncnc3ccc(C(F)(F)F)cc23)C1=O")
28
>>> experimental_result("CC(C)N(C)[C@@H]1CC[C@H](N2CC[C@H](NC(=O)c3cccc(C(F)(F)F)c3)C2=O)[C@H](N(C)S(C)(=O)=O)C1")
11

Could you now consider this next compound?
// fetch bioavailability given entry `CC(C)N(C)[C@@H]1CC[C@H](N2CC[C@H](NC(=O)c3cccc(C(F)(F)F)c3)C2=O)[C@H](NS(C)(=O)=O)C1`
35

---

Task for the reader: assign each of the following molecules its reported clearance.
assay: Clearance in iv dosed mouse; format: ADME, organism-based; conditions: in vivo
Give bare numbers, in mL/min/kg.

>>> experimental_result("CC(C)N(C)[C@@H]1CC[C@H](N2CC[C@H](NC(=O)c3cccc(C(F)(F)F)c3)C2=O)[C@H](N(C)S(C)(=O)=O)C1")
67
>>> experimental_result("CC(C)N(C)[C@@H]1CC[C@H](N2CC[C@H](NC(=O)c3cccc(C(F)(F)F)c3)C2=O)[C@H](NS(C)(=O)=O)C1")
258
>>> experimental_result("CC(=O)N[C@@H]1C[C@H](N(C)C(C)C)CC[C@@H]1N1CC[C@H](Nc2ncnc3ccc(C(F)(F)F)cc23)C1=O")
38

Could you now consider this next molecule?
// fetch clearance given entry `CC(C)N(C)[C@@H]1CC[C@H](N2CC[C@H](NC(=O)c3cccc(C(F)(F)F)c3)C2=O)[C@H](CS(C)(=O)=O)C1`
70

---

biological target: C-C chemokine receptor type 5 (Homo sapiens); experiment: Binding affinity to CCR5 in T-cell (unknown origin)
PROPERTY_NAME: pKd
Give bare numbers, as −log10 of the molar value.

Output reported pKd of the compound `CC(=O)N[C@@H]1C[C@H](N(C)C(C)C)CC[C@@H]1N1CC[C@H](Nc2ncnc3ccc(C(F)(F)F)cc23)C1=O` on C-C chemokine receptor type 5 (Homo sapiens).
7.63

---

molecular target: C-C chemokine receptor type 5 (Homo sapiens, UniProt P51681)
Sequence (P51681 whole entry): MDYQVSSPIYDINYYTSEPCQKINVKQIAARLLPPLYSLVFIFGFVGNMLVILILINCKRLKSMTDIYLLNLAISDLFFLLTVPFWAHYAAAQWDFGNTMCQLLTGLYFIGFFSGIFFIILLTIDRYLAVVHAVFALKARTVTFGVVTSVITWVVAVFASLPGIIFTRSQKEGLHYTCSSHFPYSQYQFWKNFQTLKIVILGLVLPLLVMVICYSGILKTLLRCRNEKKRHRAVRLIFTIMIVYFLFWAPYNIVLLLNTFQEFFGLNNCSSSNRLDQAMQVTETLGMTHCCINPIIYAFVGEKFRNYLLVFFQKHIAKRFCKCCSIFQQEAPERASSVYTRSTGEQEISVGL
Task for the reader: assign each of the following compounds its reported IC50.
Give bare numbers, in nM.

For each entry beneath this line, provide reported IC50.
1. CC(C)N(C)[C@@H]1CC[C@H](N2CC[C@H](NC(=O)c3cccc(C(F)(F)F)c3)C2=O)[C@H](CS(C)(=O)=O)C1
2. CC(C)N(C)[C@@H]1CC[C@H](N2CC[C@H](NC(=O)c3cccc(C(F)(F)F)c3)C2=O)[C@H](NS(C)(=O)=O)C1

1: 1640; 2: 3470

Each recorded value in this set is attributed to ChEMBL document CHEMBL4339198.
